Molecular target: T1, human wild-type Sema3A of SEQ ID NO: 600, expressed by HEK293 cells (human, UniProt Q14563 22-771, limits assumed)
T1 sequence: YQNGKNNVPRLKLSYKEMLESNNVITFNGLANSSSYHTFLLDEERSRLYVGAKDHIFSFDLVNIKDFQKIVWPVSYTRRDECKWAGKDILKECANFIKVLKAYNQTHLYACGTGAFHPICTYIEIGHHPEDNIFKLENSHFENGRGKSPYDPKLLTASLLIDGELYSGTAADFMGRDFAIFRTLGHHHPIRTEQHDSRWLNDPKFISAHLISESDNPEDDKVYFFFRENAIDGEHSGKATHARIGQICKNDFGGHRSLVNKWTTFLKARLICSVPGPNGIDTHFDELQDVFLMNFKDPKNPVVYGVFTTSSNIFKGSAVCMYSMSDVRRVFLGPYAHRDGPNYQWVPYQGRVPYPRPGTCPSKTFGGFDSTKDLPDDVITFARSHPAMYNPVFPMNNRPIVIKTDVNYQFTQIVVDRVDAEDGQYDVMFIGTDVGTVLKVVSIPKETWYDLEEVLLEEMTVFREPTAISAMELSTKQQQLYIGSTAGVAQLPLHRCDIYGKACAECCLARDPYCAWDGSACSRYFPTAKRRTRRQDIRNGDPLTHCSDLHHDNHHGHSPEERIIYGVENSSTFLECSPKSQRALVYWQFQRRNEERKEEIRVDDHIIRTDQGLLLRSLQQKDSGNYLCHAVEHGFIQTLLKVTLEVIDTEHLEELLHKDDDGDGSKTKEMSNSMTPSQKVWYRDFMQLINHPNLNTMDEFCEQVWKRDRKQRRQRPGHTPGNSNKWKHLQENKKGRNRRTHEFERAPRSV
Test: cell-based or functional assay
Quantity Measured: EC50 (pM), HUVEC repulsion assay, second experiment
Use pM as the unit, but write only the number.

{"columns": ["Binder", "Numeric Value"],
 "data": [
  ["TPP-17755 (antibody, human IgG1, lambda, V domains shown, also called Samsung; Samsung Prior Art F11) VH: EVQLLESGGGLVQTGGSLRLSCAASGFTFSDYAMSWVRQAPGKGLEWVSWIYYDSGSKYYADSVKGRFTISRDNSKNTLYLQMNSLRAEDTAVYYCAKLNGDFDYWGQGTLVTVSS VL: QSVLTQPPSASGTPGQRVTISCSGSSSNIGNNDVSWYQQLPGTAPKLLIYADSHRPSGVPDRFSGSKSGTSASLAISGLRSEDEADYYCGAWDSSLSGYVFGGGTKLTVLG", 2790],
  ["TPP-30790 (antibody, human IgG1, kappa, V domains shown, prior art, WO 2020/225400; also called BI clone III; Böhringer (BI) Clone III) VH: EVQLVESGGGLVQLGGSLRLSCAASGFTFSSYYMSWVRQAPGKGLEWVSTIIKSGGYAYYPDSVKDRFTISRDNSKNTLYLQMNSLRAEDTAVYYCVKGGQGAMDYWGQGTTVTVSS VL: EIVLTQSPATLSLSPGERATLSCRASQSIGDYLHWYQQKPGQAPRLLIYYASQSISGIPARFSGSGSGTDFTLTISSLEPEDFAVYYCQQGYSFPYTFGGGTKLEIKR", 121],
  ["TPP-30788 (antibody, human IgG1, kappa, V domains shown, prior art, WO 2020/225400; also called BI clone I; Böhringer (BI) Clone I) VH: EVQLVESGGGLVQPGGSLRLSCAASGFTFSSYYMSWVRQAPGKGLEWVSTIIKSGGYAYYPDSVKDRFTISRDNSKNTLYLQMSSLRAEDTAVYYCVRGGQGAMDYWGQGTTVTVSS VL: EIVLTQSPATLSLSPGERATLSCRASQSIGDYLHWYQQKPGQAPRLLIKYASQSISGIPARFSGSGSGTDFTLTITSLEPEDFAVYYCQQGYSFPYTFGGGTKLEIKR", 104]
]}

Pending binder:
// EC50 (pM), HUVEC repulsion assay, second experiment lookup, key: TPP-30791 (antibody, human IgG1, kappa, V domains shown, prior art, WO 2020/225400; also called BI clone IV; Böhringer (BI) Clone IV) VH: EVQLVESGGGLLQLGGSLRLSCAASGFTFSSYYMSWVRQAPGKGLEWVSTIIKSGGYAYYPDSVKDRFTISRDNSKNTLNLQMNSLRAEDTAVYYCVKGGQGAMDYWGQGTTVTVSS VL: EIVLTQSPATLSLSPGERATLSCRASQSIGDYLHWYQQKPGQAPRLLIKYASQSISGIPARFSGSGSGTDFTLTISSLEPEDFAVYYCQQGYSFPYTFGGGTKLEIKR
221
